System: ducksalad (Heteranthera limosa)
Experiment: Test B flooded paddy
Type: in vivo
Settings: Heteranthera limosa, 336 h; 250 g ai/ha, Flood, 13 to 15 days, scale 0 (no effect) to 100 (complete control); read-out: Plant response rating, Ducksalad
Entries annotated with measured pest or weed control at 250 g/ha
# value in %; strip the unit string

Previously resolved entries follow.
Fc1ccc(F)c(Oc2ncc(Br)cn2)c1Oc1ncc(Br)cn1 | 50
N#Cc1cccc(Oc2ncc(Cl)cn2)c1Oc1ncc(Cl)cn1 | 90

Q: # return recorded pest or weed control at 250 g/ha for entry Fc1ccc(F)c(Oc2ncc(Cl)cn2)c1Oc1ncc(Cl)cn1
Ans: 30

Q: # return recorded pest or weed control at 250 g/ha for entry Fc1cccc(Oc2ncc(Cl)cn2)c1Oc1ncc(C(F)(F)F)cn1
Ans: 100

Q: # return recorded pest or weed control at 250 g/ha for entry Clc1cnc(Oc2cccc(Cl)c2Oc2ncc(Br)cn2)nc1
Ans: 100

* * *

Entries annotated with measured pest or weed control at 31 g/ha
System: Italian ryegrass (Lolium multiflorum)
Assay: Test C preemergence
Assay type: in vivo
Conditions: Lolium multiflorum, pre-emergence, 336 h; 31 g ai/ha, preemergence; scale 0 to 100; read-out: Plant response rating, Ryegrass, Italian
Excerpt: […]
# value in %; strip the unit string

Previously resolved entries follow.
Fc1cnc(Oc2c(F)ccc(F)c2Oc2ncc(F)cn2)nc1 | 15
Clc1cnc(Oc2cccc(Cl)c2Oc2ncc(Br)cn2)nc1 | 20
Fc1ccc(F)c(Oc2ncc(Cl)cn2)c1Oc1ncc(Cl)cn1 | 5
N#Cc1cccc(Oc2ncc(C(F)(F)F)cn2)c1Oc1ncc(Cl)cn1 | 20

Q: # return recorded pest or weed control at 31 g/ha for entry N#Cc1cccc(Oc2ncc(Cl)cn2)c1Oc1ccc(Br)cn1
Ans: 5

* * *

Entries annotated with measured pest or weed control at 125 g/ha
Tested on: ragweed (common ragweed, Ambrosia elatior)
Test: Test C postemergence
Type: in vivo
Settings: Ambrosia artemisiifolia, post-emergence, 336 h; Postemergence, 125 g ai/ha, scale 0 to 100; read-out: Plant response rating, Ragweed

Previously resolved entries follow.
Fc1cnc(Oc2c(F)cccc2Oc2ncc(Cl)cn2)nc1 | 75%
N#Cc1cccc(Oc2ncc(Cl)cn2)c1Oc1ccc(Cl)cc1 | 75%
N#Cc1cccc(Oc2ncc(Cl)cn2)c1Oc1ncc(C(F)(F)F)cn1 | 50%

Q: Lab note: record pest or weed control at 125 g/ha of N#Cc1cccc(Oc2ncc(C(F)(F)F)cn2)c1Oc1ncc(Cl)cn1 tested on ragweed (common ragweed, Ambrosia elatior).
Ans: 85%

Q: Lab note: record pest or weed control at 125 g/ha of Fc1ccc(F)c(Oc2ncc(Cl)cn2)c1Oc1ncc(Cl)cn1 tested on ragweed (common ragweed, Ambrosia elatior).
Ans: 60%

* * *

Tested on: barnyardgrass (Echinochloa crus-galli)
Assay: Test A preemergence
Type: in vivo
Conditions: 31 g ai/ha, 0 to 100 scale (0 no effect, 100 complete control)
reported.property: Barnyardgrass plant response rating
Give the value as a plain number.

Previously resolved entries follow.
Fc1ccc(F)c(Oc2ncc(C(F)(F)F)cn2)c1Oc1ncc(Cl)cn1 [Compound 25] | 10
Fc1ccc(Oc2ccc(C(F)(F)F)cn2)c(Oc2ncc(Cl)cn2)c1 [Compound 45] | 0
N#Cc1cccc(Oc2ncc(C(F)(F)F)cn2)c1Oc1ncc(C(F)(F)F)cn1 [Compound 35] | 0

Q: # return recorded Barnyardgrass plant response rating for entry N#Cc1cccc(Oc2ncc(Cl)cn2)c1Oc1ccc(C(F)(F)F)cn1 [Compound 14]
Ans: 0

* * *

Test system: blackgrass (Alopecurus myosuroides)
Assay: Test C postemergence
Assay type: in vivo
Conditions: Alopecurus myosuroides, post-emergence, 336 h; Postemergence, 31 g ai/ha, scale 0 to 100; read-out: Plant response rating, Blackgrass
reported.property: pest or weed control at 31 g/ha (%)
# value in %; strip the unit string

Q: Lab note: record pest or weed control at 31 g/ha of N#Cc1cccc(Oc2ncc(Cl)cn2)c1Oc1ncc(C(F)(F)F)cn1 [Compound 38] tested on blackgrass (Alopecurus myosuroides).
Ans: 0

* * *

System: Italian ryegrass (Lolium multiflorum)
Experiment: Test A preemergence
Assay type: in vivo
Conditions: Lolium multiflorum, pre-emergence, 240 h, 125 g ai/ha, 0 to 100 scale (0 no effect, 100 complete control), read-out: Ryegrass, Italian plant response rating
Entries annotated with measured pest or weed control at 125 g/ha
Answer shape: numeric part, then the unit.

Previously resolved entries follow.
Fc1cnc(Oc2c(F)ccc(F)c2Oc2ncc(F)cn2)nc1 | 30%
N#Cc1cccc(Oc2ncc(Cl)cn2)c1Oc1ccc(Cl)cc1 | 20%
FCc1cccc(Oc2ncc(Cl)cn2)c1Oc1ncc(Cl)cn1 | 20%

Q: # return recorded pest or weed control at 125 g/ha for entry N#Cc1cccc(Oc2ncc(Cl)cn2)c1Oc1ccc(Cl)cn1
Ans: 20%

Q: # return recorded pest or weed control at 125 g/ha for entry N#Cc1cccc(Oc2ncc(Cl)cn2)c1Oc1cccc(Cl)c1
Ans: 0%

* * *

Entries annotated with measured pest or weed control at 125 g/ha
Test system: pigweed (Amaranthus retroflexus)
Assay: Test A postemergence
Type: in vivo
Conditions: Amaranthus retroflexus, post-emergence, 240 h, 125 g ai/ha, 0 to 100 scale, read-out: Plant response rating, Pigweed
# value in %; strip the unit string

Previously resolved entries follow.
N#Cc1cccc(Oc2ncc(Cl)cn2)c1Oc1cccnc1 [Compound 8] | 20
N#Cc1cccc(Oc2ncc(C(F)(F)F)cn2)c1Oc1ncc(Cl)cn1 [Compound 39] | 100
N#Cc1cccc(Oc2ncc(Br)cn2)c1Oc1cccnc1 [Compound 7] | 20

Q: # return recorded pest or weed control at 125 g/ha for entry N#Cc1cccc(Oc2ncc(Cl)cn2)c1Oc1cccc(Cl)c1 [Compound 37]
Ans: 0

Q: # return recorded pest or weed control at 125 g/ha for entry N#Cc1cccc(Oc2ncc(Cl)cn2)c1Oc1cnc(Cl)cn1 [Compound 32]
Ans: 100

Q: # return recorded pest or weed control at 125 g/ha for entry N#Cc1cccc(Oc2ncc(Cl)cn2)c1Oc1ncc(Cl)cn1 [Compound 3]
Ans: 100

Q: # return recorded pest or weed control at 125 g/ha for entry Fc1cccc(Oc2ncc(Cl)cn2)c1Oc1ncc(C(F)(F)F)cn1 [Compound 43]
Ans: 100

Q: # return recorded pest or weed control at 125 g/ha for entry N#Cc1cccc(Oc2ncc(Br)cn2)c1Oc1ncc(Br)cn1 [Compound 1]
Ans: 100

* * *

System: Italian ryegrass (Lolium multiflorum)
Assay: Test C postemergence
Assay type: in vivo
Details: Lolium multiflorum, post-emergence, 336 h; Postemergence, 250 g ai/ha, scale 0 to 100; read-out: Plant response rating, Ryegrass, Italian
Source text: […]
Entries annotated with measured pest or weed control at 250 g/ha

Previously resolved entries follow.
Fc1cnc(Oc2c(Br)cccc2Oc2ncc(Cl)cn2)nc1 | 5%
Fc1cccc(Oc2ncc(Cl)cn2)c1Oc1ccc(Cl)nc1 | 15%
Fc1cccc(Oc2ncc(Cl)cn2)c1Oc1ncc(Br)cn1 | 5%

Below: the item to evaluate.
Q: # return recorded pest or weed control at 250 g/ha for entry N#Cc1cccc(Oc2ncc(Cl)cn2)c1Oc1ncc(Cl)cn1
Ans: 35%

* * *

Tested on: corn (Zea mays)
Experiment: Test C preemergence
Assay type: in vivo
Conditions: Zea mays, pre-emergence, 336 h; Preemergence, 16 g ai/ha; scale 0 to 100
reported.property: Corn plant response rating (crop injury, 0 = no effect, 100 = complete kill) at 16 g/ha (%)
# value in %; strip the unit string

Previously resolved entries follow.
N#Cc1cccc(Oc2ncc(Cl)cn2)c1Oc1ncc(Br)cn1 | 0
N#Cc1cccc(Oc2ncc(Cl)cn2)c1Oc1ccc(Br)cn1 | 0
Fc1cccc(Oc2ncc(Cl)cn2)c1Oc1ncc(C(F)(F)F)cn1 | 20
Fc1ccc(F)c(Oc2ncc(Cl)cn2)c1Oc1ncc(Cl)cn1 | 0

Below: the item to evaluate.
Q: # return recorded Corn plant response rating (crop injury, 0 = no effect, 100 = complete kill) at 16 g/ha for entry Clc1cnc(Oc2cccc(Br)c2Oc2ncc(Cl)cn2)nc1
Ans: 5

* * *

Tested on: yellow nutsedge (Cyperus esculentus)
Assay: Test C preemergence
Assay type: in vivo
Settings: Cyperus, pre-emergence, 336 h; 31 g ai/ha, preemergence; scale 0 to 100; read-out: Plant response rating, Nutsedge, Yellow
reported.property: pest or weed control at 31 g/ha

Previously resolved entries follow.
Clc1cnc(Oc2cccc(Br)c2Oc2ncc(Cl)cn2)nc1 | 5%
Fc1cnc(Oc2c(Cl)cccc2Oc2ncc(Cl)cn2)nc1 | 0%
Fc1cnc(Oc2c(F)ccc(F)c2Oc2ncc(F)cn2)nc1 | 0%
Fc1ccc(F)c(Oc2ncc(Cl)cn2)c1Oc1ncc(Cl)cn1 | 0%

Q: Lab note: record pest or weed control at 31 g/ha of Fc1cccc(Oc2ncc(Cl)cn2)c1Oc1ncc(Cl)cn1 tested on yellow nutsedge (Cyperus esculentus).
Ans: 5%

* * *

Test system: corn (Zea mays)
Assay: Test C postemergence
Format: in vivo
Details: Zea mays, post-emergence, 336 h; Postemergence, 16 g ai/ha, scale 0 to 100
Description: […]
reported.property: Corn plant response rating (crop injury, 0 = no effect, 100 = complete kill) at 16 g/ha (%)
# value in %; strip the unit string

N#Cc1cccc(Oc2ncc(Cl)cn2)c1Oc1ccc(Cl)cc1 | 10
Fc1cccc(Oc2ncc(Cl)cn2)c1Oc1ncc(Cl)cn1 | 0
Fc1ccc(F)c(Oc2ncc(Cl)cn2)c1Oc1ncc(Cl)cn1 | 5
Fc1cccc(Oc2ncc(C(F)(F)F)cn2)c1Oc1ncc(Cl)cn1 | 5

Below: the item to evaluate.
Q: Lab note: record Corn plant response rating (crop injury, 0 = no effect, 100 = complete kill) at 16 g/ha of N#Cc1cccc(Oc2ncc(Cl)cn2)c1Oc1ncc(Br)cn1 tested on corn (Zea mays).
Ans: 5

The measurements presented in this section are drawn from patent US20170190671A1.
